Assignment: determine reported Percent parent compound remaining at 60 minutes in liver microsomes, Human for the given molecules.
run conditions: 1 h, pH 7.4
Counter-ions that a name gives are not always drawn.
Report as: number unit

Q. Supply recorded Percent parent compound remaining at 60 minutes in liver microsomes, Human for N[C@H]1CC[C@H](NC(=O)C23CC4CC(Br)(C2)CC(c2ccccc2)(C4)C3)CC1 (mixture of isomers) here.
A. 97.5%

Q. Supply recorded Percent parent compound remaining at 60 minutes in liver microsomes, Human for CCC1C2CC3(C(=O)N[C@H]4CC[C@H](N)CC4)CC1CC(c1ccccc1)(C2)C3 (stereo partly shown) here.
A. 85%

Q. Supply recorded Percent parent compound remaining at 60 minutes in liver microsomes, Human for N[C@H]1CC[C@H](NC(=O)C23CC4CC(c5ccccc5)(CC(C2)C4CCCl)C3)CC1 (stereo partly shown) here.
A. 85%

Q. Supply recorded Percent parent compound remaining at 60 minutes in liver microsomes, Human for N[C@H]1CC[C@H](NC(=O)C23CC4CC(CCl)(C2)CC(c2ccccc2)(C4)C3)CC1 (mixture of isomers) [Example E1, hydrochloride] here.
A. 89%
